Data credit: PubChem BioAssay AID2060493

# Test system: 616215-338-R-J1-PDC tumor spheroids, viability
# measurement notes: Anticancer human tumor 616215-338-R-J1-PDC patient-derived colon adenocarcinoma cell line growth inhibition [GQUAD]
# recorded conditions: second compound 10 µM; first compound 0.316 µM; hits give low values; spheroids with HUVEC and MSC
Would you mind telling me the reported viability, T/C of each entry?
The figure you give is taken to be in %; do not add the unit.

Data request: Fill in the blank: the reported viability, T/C of COc1ncnc(C2CC2)c1-c1ncc2cnn(Cc3ccc(-c4nc(C(F)(F)F)cn4C(C)C)cc3)c2n1 + Cc1cnc(CNC(=O)c2c(=O)c3ccc(N4CCCN(C)CC4)nc3n3c2sc2ccccc23)cn1 is ____.
Data returned: 21.3

Data request: Fill in the blank: the reported viability, T/C of CCc1c2c(nc3ccc(O)cc13)-c1cc3c(c(=O)n1C2)COC(=O)[C@]3(O)CC + CN(C)c1ccc(Nc2c3ccc(NC(=O)CCN4CCCC4)cc3nc3cc(NC(=O)CCN4CCCC4)ccc23)cc1 is ____.
Data returned: 8.62

Data request: Fill in the blank: the reported viability, T/C of CCCS(=O)(=O)Nc1ccc(F)c(C(=O)c2c[nH]c3ncc(-c4ccc(Cl)cc4)cc23)c1F + Cc1cnc(CNC(=O)c2c(=O)c3ccc(N4CCCN(C)CC4)nc3n3c2sc2ccccc23)cn1 is ____.
Data returned: 27.6

====

Would you mind telling me the reported viability, T/C of each entry?
# Test system: 616215-338-R-J1-PDC tumor spheroids, viability
# measurement notes: Anticancer human tumor 616215-338-R-J1-PDC cell line growth inhibition [GQUAD];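 note: spheroids exposed to agents for 7 days before readout; percent viability relative to DMSO vehicle control wells taken as 100%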
# recorded conditions: second compound 1 µM; first compound 0.0316 µM; hits give low values; spheroids with HUVEC and MSC
The figure you give is taken to be in %; do not add the unit.

Data request: Fill in the blank: the reported viability, T/C of Cc1[nH]c2ccccc2c1CCNCc1ccc(/C=C/C(=O)NO)cc1 + Cc1[nH]c2ccc(F)cc2c1-c1nc2c3cccnc3c3ncccc3c2[nH]1 is ____.
Data returned: 101

Data request: Fill in the blank: the reported viability, T/C of COc1ccc([C@@H](O)c2cc(-c3ncnc4cc(N5CCOCC5)ccc34)c(F)cc2Cl)nn1 + Cc1cnc(CNC(=O)c2c(=O)c3ccc(N4CCCN(C)CC4)nc3n3c2sc2ccccc23)cn1 is ____.
Data returned: 25.3

Data request: Fill in the blank: the reported viability, T/C of CCCS(=O)(=O)Nc1ccc(F)c(C(=O)c2c[nH]c3ncc(-c4ccc(Cl)cc4)cc23)c1F + CN(C)c1ccc(Nc2c3ccc(NC(=O)CCN4CCCC4)cc3nc3cc(NC(=O)CCN4CCCC4)ccc23)cc1 is ____.
Data returned: 112

Data request: Fill in the blank: the reported viability, T/C of Nc1ccn(C2OC(CO)C(O)C2(F)F)c(=O)n1 (stereo not given) + Cc1cnc(CNC(=O)c2c(=O)c3ccc(N4CCCN(C)CC4)nc3n3c2sc2ccccc23)cn1 is ____.
Data returned: 32.5

Data request: Fill in the blank: the reported viability, T/C of CCc1c2c(nc3ccc(O)cc13)-c1cc3c(c(=O)n1C2)COC(=O)[C@]3(O)CC + CN(C)c1ccc(Nc2c3ccc(NC(=O)CCN4CCCC4)cc3nc3cc(NC(=O)CCN4CCCC4)ccc23)cc1 is ____.
Data returned: 35

Data request: Fill in the blank: the reported viability, T/C of CC[C@@]1(O)C(=O)OCc2c1cc1n(c2=O)Cc2cc3c(CN(C)C)c(O)ccc3nc2-1 + Cc1cnc(CNC(=O)c2c(=O)c3ccc(N4CCCN(C)CC4)nc3n3c2sc2ccccc23)cn1 is ____.
Data returned: 27.7

Data request: Fill in the blank: the reported viability, T/C of Nc1ccn(C2OC(CO)C(O)C2(F)F)c(=O)n1 (stereo not given) + CN(C)c1ccc(Nc2c3ccc(NC(=O)CCN4CCCC4)cc3nc3cc(NC(=O)CCN4CCCC4)ccc23)cc1 is ____.
Data returned: 34.6

Data request: Fill in the blank: the reported viability, T/C of CC(=O)O[C@H]1C(=O)[C@@]2(C)[C@H]([C@H](OC(=O)c3ccccc3)[C@]3(O)C[C@H](OC(=O)[C@H](O)[C@@H](NC(=O)c4ccccc4)c4ccccc4)C(C)=C1C3(C)C)[C@]1(OC(C)=O)CO[C@@H]1C[C@@H]2O + CN(C)c1ccc(Nc2c3ccc(NC(=O)CCN4CCCC4)cc3nc3cc(NC(=O)CCN4CCCC4)ccc23)cc1 is ____.
Data returned: 34

Data request: Fill in the blank: the reported viability, T/C of CC1COCCN1c1cc(C2(O)CC3CCC(C2)O3)c2cnn(-c3ccn[nH]3)c2n1 (stereo not given) + Cc1cnc(CNC(=O)c2c(=O)c3ccc(N4CCCN(C)CC4)nc3n3c2sc2ccccc23)cn1 is ____.
Data returned: 29.5

Data request: Fill in the blank: the reported viability, T/C of C=CCn1c(=O)c2cnc(Nc3ccc(N4CCN(C)CC4)cc3)nc2n1-c1cccc(C(C)(C)O)n1 + Cc1cnc(CNC(=O)c2c(=O)c3ccc(N4CCCN(C)CC4)nc3n3c2sc2ccccc23)cn1 is ____.
Data returned: 29.8
